Measured values drawn from patent US20230322908A1 for this set.

// reported koff per item
- target_entity: T1, TP-51 peptide (aa 352-414 of SEQ ID NO:1) (human)
- T1 construct: Synthetic peptide (Pepscan)
- T1 peptide: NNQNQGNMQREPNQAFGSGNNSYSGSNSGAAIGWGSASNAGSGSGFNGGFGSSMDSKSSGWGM
- protocol_text: SPR 8K, mAb captured, TP-51 injected
# value in s⁻¹; strip the unit string

hACI-7069-633B12-Ab1_H20L18 (IgG4) (antibody, V domains shown) VH: EVQLVQSGAEVKKPGASVKVSCKTSGFTFTEYSMHWVRQAPGQRLEWIGGINPGNAGTSYNQKFKGRVTITVDTSASTAYMELSSLRSEDTAVYYCARESWGQGTTVTVSS VL: DVVMTQSPLSLPVTLGQPASISCKSSQSLLHSDAKTYLNWLQQRPGQSPRRLIYLVSKLDSRVPDRFSGSGSGTDFTLKISRVEAEDLGVYYCFQGTHFPHTFGQGTKLEIK
0.00021
hACI-7069-633B12-Ab1_H20L14 (IgG4) (antibody, V domains shown) VH: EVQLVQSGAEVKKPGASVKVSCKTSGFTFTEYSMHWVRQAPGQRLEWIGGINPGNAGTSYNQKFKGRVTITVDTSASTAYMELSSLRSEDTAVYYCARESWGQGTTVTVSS VL: DVVMTQSPLSLPVTLGQPASISCKSSQSLLHSDAKTYLNWLQQRPGQSPRRLIYLVSKLDSGVPDRFSGSGSGTDFTLKISRVEAEDLGVYYCFQGTHFPHTFGQGTKLEIK
0.0014

Now examine the next entry.
Form: binder = hACI-7069-633B12-Ab1_H19L19 (IgG4) (antibody, V domains shown) VH: QVQLVQSGAEVKKPGASVKVSCKTSGFTFTEYSMHWVRQAPGQRLEWIGGINPGNAGTSYNQKFKGRVTITVDTSASTAYMELSSLRSEDTAVYYCARESWGQGTTVTVSS VL: DVVMTQSPLSLPVTLGQPASISCKSSQSLLHSDAKTYLNWLQQRPGQSPKRLIYLVSKLDSRVPDRFSGSGSGTDFTLKISRVEAEDLGVYYCFQGTHFPHTFGQGTKLEIK ; koff = 0.00026
